test: Quantitative High-Throughput drug screen in 47 multiple myeloma cell lines against the NCATS MIPE library collection: XG1_PLB cell viability assay (AID 1919866); conditions: CellTiter-Glo ATP, 48 h; series mostly up to 45.8 µM; note: nearly all actives have a fitted effect of over 35% in size
Results filed as inconclusive are left out. Activity calls are given as the source filed them. Calls come from the whole dose curve; as a rule, active = well fitted cell-killing curve with a large enough effect; inconclusive = small, poorly fitted or top-dose-only effect, or effect the other way; inactive = no such curve, though single readings can be large or run the other way.
Outcome codes: TRUE (active), FALSE (inactive)

{"columns": ["Molecule", "Class"],
 "data": [
  ["CC(=O)NCC(=O)N1[C@H]2CC[C@H]1c1cc(Nc3ncc(C(F)(F)F)c(NC4CCC4)n3)ccc12", "TRUE"],
  ["O=c1ccn([C@@H]2O[C@H](CO)[C@H](O)[C@@H]2F)c(=O)[nH]1", "TRUE"],
  ["CC(=O)C1=C(O)C=C2Oc3c(C(C)=O)c(O)c(C)c(O)c3C2(C)C1=O (stereo not given)", "FALSE"],
  ["CCOC(=O)N1CCN([N+]([O-])=NOc2ccc([N+](=O)[O-])cc2C#N)CC1", "TRUE"],
  ["CC(O)(C#Cc1ccc2c(c1)N(c1nc(N)ncc1Cl)CC2)c1nccs1 (stereo not given)", "TRUE"]
]}
